Conditions: in acetonitrile, 288.15 K
observation type: solubility (mole fraction)
// keep it numeric: no unit symbol after the value

Short answer for "CC1(C)CC(NCCCCCCNC2CC(C)(C)NC(C)(C)C2)CC(C)(C)N1" : solubility (mole fraction) was 0.00371

----------
Details: in methyl acetate, 303.15 K
observation type: solubility (mole fraction)
Answer as a number with no unit attached.

Record summary for "CC1(C)CC(NCCCCCCNC2CC(C)(C)NC(C)(C)C2)CC(C)(C)N1" : reported solubility (mole fraction) = 0.185

----------
Conditions: in isopropyl acetate, 288.15 K
observation type: solubility (mole fraction)
Please give the numeric answer without any surrounding text.

Noted for "CC1(C)CC(NCCCCCCNC2CC(C)(C)NC(C)(C)C2)CC(C)(C)N1" : its solubility (mole fraction) reads 0.0983
